- METHOD_SUMMARY: Antioxidant activity assessed as DPPH radical scavenging activity at 50 uM relative to control
- Type: functional
Recorded measurements of Activity, one per entry
Entry rule: numbers only, all in %.

• O=C(O)c1cn(Cc2ccc(O)cc2)c2ccccc2c1=O = 30.4

Okay, now this compound:
In: Note Activity for the compound shown: "CONC(=O)c1cn(Cc2cc(O)cc(O)c2)c2ccccc2c1=O"
Out: 55.8

###

- METHOD_SUMMARY: Antioxidant activity assessed as DPPH radical scavenging activity at 50 uM relative to control
- Assay type: functional
Catalogue of Activity readings, one per entry.
Express the result in % but write the number alone.

See these solved cases before continuing.
* CS(=O)(=O)NC(=O)c1cn(Cc2cc(O)cc(O)c2)c2ccccc2c1=O | 64.7
* O=C(NO)c1cn(Cc2cc(O)cc(O)c2)c2ccccc2c1=O | 72.4

Please turn your attention to the following entry.
In: Read off the recorded Activity for "O=C(NO)c1cn(Cc2ccc(O)c(O)c2)c2ccccc2c1=O"
Out: 65.1
